- Test system: SK-OV-3 ovarian
- Assay Comment: NCI-60 one-dose screen, 48 h (100 = growth as untreated, 0 = no growth, -100 = all killed)
- Test Parameters: 10 µM unless noted
This is part of a sample that, as a whole, favours compounds with a hit. Of some 83,000 tested, about 20% had one in any assay.
Value Kind: growth (%)
Report as a plain number; the unit % is understood.

Some molecules with known growth results, for comparison:
>  <Molecule>
Cn1c2ccccc2c2nnc(NCCCCO)nc21

>  <Measured On>
SK-OV-3 ovarian

>  <growth / %>
86.5

$$$$
>  <Molecule>
S=c1nc2[nH]c3ccccc3c2n[nH]1

>  <Measured On>
SK-OV-3 ovarian

>  <growth / %>
89.3

$$$$
>  <Molecule>
Cc1ccc([N+](=O)[O-])c(C)n1

>  <Measured On>
SK-OV-3 ovarian

>  <growth / %>
106

$$$$
>  <Molecule>
BrCc1cccc(C[P+](c2ccccc2)(c2ccccc2)c2ccccc2)c1

>  <Measured On>
SK-OV-3 ovarian

>  <growth / %>
90.2

$$$$
>  <Molecule>
COC1CC(OC(=O)c2ccc([N+](=O)[O-])cc2)C(COC(=O)c2ccc([N+](=O)[O-])cc2)O1 (configuration not stated)

>  <Measured On>
SK-OV-3 ovarian

>  <growth / %>
107

$$$$

Please tell me the measured growth for CCCCN(C=S)CCCC ; system: SK-OV-3 ovarian.
88.6

Please tell me the measured growth for N#CC1(O)CCCCC1 ; system: SK-OV-3 ovarian.
93.6

Please tell me the measured growth for CCOC(=O)Nc1nccs1 ; system: SK-OV-3 ovarian.
99.9

Please tell me the measured growth for CCOC(=O)c1ccc(Nc2sc(C(=O)c3ccc(Br)cc3)c(N)c2C#N)cc1 ; system: SK-OV-3 ovarian.
11.7

Please tell me the measured growth for ClCC(Cl)C1CCC(Cl)C(Cl)C1 (configuration not stated) ; system: SK-OV-3 ovarian.
100

Please tell me the measured growth for CN1CCN(C(=S)S)CC1 ; system: SK-OV-3 ovarian.
111

Please tell me the measured growth for OC1Cc2ccccc2C1 ; system: SK-OV-3 ovarian.
111

Please tell me the measured growth for CCc1ccccc1C(=O)N(CC)CC ; system: SK-OV-3 ovarian.
118
